system: α7 integrin (LacZ reporter in α7LacZ+/− myoblasts); assay: qHTS of the LOPAC library and MLSMR (online screen, α7LacZ+/− myoblasts); settings: Mus musculus, Myoblast, 48 h, read-out: Activity at 7.660 uM [%] **
QUANTITY: activation at 7.66 µM

The value of activation at 7.66 µM measured for the compound CCOC(=O)c1sc(=N)n(-c2ccc(OC)cc2)c1C turned out to be 41.9%

The value of activation at 7.66 µM measured for the compound CCOc1ccc2oc(C(=O)OCC(=O)NC(=O)NC)c(C)c2c1 turned out to be 40.2%

The value of activation at 7.66 µM measured for the compound COc1ccc(-n2c(C)c(C(C)=O)c3cc(OC(C)=O)ccc32)cc1 turned out to be 48.5%

The value of activation at 7.66 µM measured for the compound COCCN1C=C(C(=O)OC)C(c2ccccc2Cl)C(C(=O)OC)=C1 turned out to be 45.1%

The value of activation at 7.66 µM measured for the compound O=S(=O)(c1ccccc1)N1CCCC(c2nc(O)c3nnn(Cc4cccc(Cl)c4)c3n2)C1 (stereo not shown) turned out to be 22.4%

The value of activation at 7.66 µM measured for the compound N=C(NOC(=O)COc1cc(Cl)c(Cl)cc1Cl)c1ccncc1 turned out to be 50.4%

The value of activation at 7.66 µM measured for the compound Cc1nc2c([nH]1)OC(N)=C(C#N)C21CCN(Cc2ccccc2)CC1 turned out to be 23%

The value of activation at 7.66 µM measured for the compound C[C@H]1CNC(=O)c2c(C(=O)Nc3ccc(CNC(=O)OC(C)(C)C)cc3)ncn21 turned out to be 50.5%

The value of activation at 7.66 µM measured for the compound COc1ccc(-c2csc3ncnc(N4CCN(c5ccccc5[N+](=O)[O-])CC4)c23)cc1 turned out to be 36.5%

The value of activation at 7.66 µM measured for the compound O=C(NC(=S)NCCC1=CCCCC1)c1ccc(Br)o1 turned out to be 12.1%

The value of activation at 7.66 µM measured for the compound Cc1ccc(NCc2nnc(SCC(=O)Nc3nnc(C)s3)n2C)cc1 turned out to be 31.4%

The value of activation at 7.66 µM measured for the compound Cc1cc(C(=O)Nc2cccc3ccccc23)c(C)o1 turned out to be 26.2%

The value of activation at 7.66 µM measured for the compound CC(C)(C)N/C=C(\C#N)S(=O)(=O)c1ccc(Br)cc1 turned out to be 42.1%

The value of activation at 7.66 µM measured for the compound CC1CCN(S(=O)(=O)c2ccc(S(=O)(=O)N3CCCC3)cc2)CC1 turned out to be 54.5%

The value of activation at 7.66 µM measured for the compound O=C(Nc1cc(Br)ccc1O)C1CC(c2ccccc2Cl)=NO1 (stereo not shown) turned out to be 15.3%

The value of activation at 7.66 µM measured for the compound COc1ccccc1-c1coc2c3c(ccc2c1=O)OC1CCCCN1C3 (stereo not shown) turned out to be 154%

The value of activation at 7.66 µM measured for the compound CN(C)S(=O)(=O)c1cccc(C(=O)Nc2ccc3c(c2)CCC3)c1 turned out to be 96.4%

The value of activation at 7.66 µM measured for the compound C=CCN(CC=C)C(=O)c1ccc(OC2CCN(S(=O)(=O)N(C)C)CC2)cc1 turned out to be 95.1%

The value of activation at 7.66 µM measured for the compound Cc1ccccc1C(=O)Nc1nnc(SC(C)C)s1 turned out to be 20.6%
